# GI50 per entry
# Test system: MOLT-4
# Protocol Details: NCI tumour cell line growth inhibition, 48 h
Calls of active or inactive are those of the source. Cut-off read from the data, not from the text of the source: active = GI50 up to about 1.1 µM and inactive = higher.

Compound | GI50
O=C1c2ccccc2-c2nc3ccc(O)cc3n21 | > 100 µM (inactive)

What reported GI50 corresponds to Cc1c2c(OCC(O)CN3CCN(c4ccccc4)CC3)nn(C)c(=O)c2c(C)n1-c1ccccc1 (centres undefined) on MOLT-4?
30.4 µM (inactive)

Another compound to check: COC(=O)C(Cc1ccc(OC)cc1O)NC(=O)OC(C)(C)C (centres undefined)
> 100 µM (inactive)

Another compound to check: COC(=O)C1=C(CCC[C@H](C)O[Si](C)(C)C(C)(C)C)NC(=O)N2[C@@H](CCO)CC[C@H]12
18.6 µM (inactive)

Another compound to check: COc1ccc(/C=C2\CN(C)Cc3c2nc(N)nc3-c2ccc(OC)cc2)cc1
30.1 µM (inactive)

Another compound to check: COc1ccc2c3c([nH]c2c1)[C@H]1C[C@H]2[C@H](C[C@@H](O)[C@H](OC)[C@H]2C(=O)O)CN1CC3
> 100 µM (inactive)

Another compound to check: CCOC(=O)/C=C(\C)Sc1cc(O)c2ccccc2c1O
8.05 µM (inactive)

Another compound to check: Cc1cc(C)nc(Nc2nc3cc([N+](=O)[O-])ccc3[nH]2)n1
> 100 µM (inactive)

Another compound to check: C=C1CC2CCCC12C=O (centres undefined)
> 10 µM (inactive)

###

# GI50 per entry
# Tested on: OVCAR-8
# Protocol Details: NCI tumour cell line growth inhibition, 48 h
Active and inactive are the calls of the source. Cut-off read from the data, not from the text of the source: active = GI50 up to about 1.1 µM and inactive = higher.

Compound | Target | GI50
COc1ccc(/C=C2\CCCC(CN(C)C)C2=O)cc1 (configuration not stated) | OVCAR-8 | 3.64 µM (inactive)
COc1ccc(C2COc3c(ccc(OC)c3OC)C2=O)cc1OC (configuration not stated) | OVCAR-8 | > 100 µM (inactive)
Nc1nc2[nH]c(=O)cnc2c(=O)[nH]1 | OVCAR-8 | > 125 µM (inactive)

Using the record for CC(C)C1OC(=O)C=C1Sc1ccccc1 (configuration not stated) , report its GI50.
> 100 µM (inactive)

###

# System: UO-31
# Protocol Details: NCI tumour cell line growth inhibition, 48 h
The source made the active and inactive calls. No stated cut-off is given here; in the data, active = GI50 up to about 1.1 µM and inactive = higher.
Pick one: yes (1) (active), no (0) (inactive)

Worked examples follow.
Molecule | Class Assignment
CCOC(=O)[C@@]12C[C@](/C=C/OC)(O[Si](C)(C)C)[C@@]13c1cc(OC)c(OC)cc1CCN3C(=O)C2=O | no (0)
CC(NC(=O)C(N)CC(=O)O)NC(=O)C1CCC1 (configuration not stated) | no (0)
ON[C@H]1C[C@@H](n2cnc3c(NC4CC4)ncnc32)[C@H](O)[C@@H]1O | no (0)
COc1ccc(C2CC(C)=Nc3c(O)nc(S)nc3N2)cc1 (configuration not stated) | no (0)
COc1ccc(OC)c(C2CCc3nc4nc(N)nc(N)c4cc3C2)c1 (configuration not stated) | no (0)
COc1cc([C@@H]2OC[C@@H]3C(c4cc(OC)c5c(c4)OCO5)OC[C@@H]32)cc(OC)c1OC (some centres not stated) | no (0)
NC(CCCCNC(=O)C(Cc1ccccc1)NC(=O)OCc1ccccc1)C(=O)NC(CCCCNC(=O)C(Cc1ccccc1)NC(=O)OCc1ccccc1)C(=O)NC(CCCCNC(=O)C(Cc1ccccc1)NC(=O)OCc1ccccc1)C(=O)NC(CCCCNC(=O)C(Cc1ccccc1)NC(=O)OCc1ccccc1)C(=O)NC(CCCCNC(=O)C(Cc1ccccc1)NC(=O)OCc1ccccc1)C(=O)NC(CCCCNC(=O)C(Cc1ccccc1)NC(=O)OCc1ccccc1)C(=O)O (configuration not stated) | no (0)
C/C(=N\NS(=O)(=O)c1ccc([N+](=O)[O-])cc1)c1ccc[n+]([O-])n1 | no (0)
Cn1c2ccccc2n2c(=O)c3cc([N+](=O)[O-])ccc3c(C#N)c12 | no (0)
CC(C)(C)c1ccc2c(c1)OCc1n[nH]c(n1)COc1cc(C(C)(C)C)ccc1OCCOCCO2 | no (0)

// switching to the query molecule
Lab log entry: CC1=NN(C(=O)CC(=O)Nc2ccccc2Cl)C(=O)C1/N=N\c1ccc(S(=O)(=O)c2ccc(/N=N/C3C(=O)N(C(=O)CC(=O)Nc4ccccc4Cl)N=C3C)cc2)cc1 (configuration not stated) — outcome as called in the assay?
no (0)

###

# Test system: EKVX
# Protocol Details: NCI tumour cell line growth inhibition, 48 h
The source made the active and inactive calls. Cut-off read from the data, not from the text of the source: active = GI50 up to about 1.1 µM and inactive = higher.
Reported Endpoint: GI50

Please review the following examples before continuing.
Compound | Target | Endpoint Result
CCOC(=O)C1=C(O)C2C3CC4C2C(O)=C(C(=O)OCC)C2C1C3C42 (centres undefined) | EKVX | > 100 µM (inactive)
C[O+]=C1C=CC(=C2SC(c3ccccc3)(c3ccccc3)c3ccccc32)C=C1.[O-][Cl+3]([O-])([O-])[O-] | EKVX | 17.8 µM (inactive)
COc1cc(Br)c(CC2NCCc3cc(OC)c(OC)cc32)cc1OC (centres undefined) | EKVX | > 100 µM (inactive)

# evaluate next
Using the record for CCOC(=O)NC(=O)c1cn(CCCCCCOC(=O)NCCCCCCNC(=O)OCCCCCCn2cc(C(=O)NC(=O)OCC)c(=O)[nH]c2=O)c(=O)[nH]c1=O , report its GI50.
> 100 µM (inactive)

###

# Test system: SW-620
# Protocol Details: NCI tumour cell line growth inhibition, 48 h
Activity calls are given as the source filed them. No stated cut-off is given here; in the data, active = GI50 up to about 1.1 µM and inactive = higher.
Reported Endpoint: GI50

Molecule | GI50
CN1CCOC1(C)CO (centres undefined) | > 100 µM (inactive)
Oc1ccccc1/C=N/c1ccc(-c2nc3ccccc3s2)cc1 | 41.5 µM (inactive)
Cc1c2c(OCC(O)CN3CCN(c4ccccc4)CC3)nn(C)c(=O)c2c(C)n1-c1ccccc1 (centres undefined) | 29.9 µM (inactive)
Cc1c(N)nc(C2CC(=O)N2CC(N)C(N)=O)nc1C(=O)NC(C(=O)NC(C)C(O)C(C)C(=O)NC(C(=O)NCCc1nc(-c2nc(C(=O)NCCNCC(C)O)cs2)cs1)C(C)O)C(OC1OC(CO)C(O)C(O)C1OC1OC(CO)C(O)C(OC(N)=O)C1O)c1c[nH]cn1 (centres undefined) | 13.9 µM (inactive)

Using the record for O=C(/C=C/c1ccccc1)c1ccccc1 , report its GI50.
3.34 µM (inactive)

Another molecule to check: O=C1c2ccccc2S(=O)(=O)c2ccccc21
> 100 µM (inactive)

Another molecule to check: N#CCCN(c1ccc(/C=N/c2ccccc2)cc1)S(=O)(=O)c1ccccc1
> 100 µM (inactive)

Another molecule to check: CC(=O)OCc1nc(C#N)c(N)o1
> 100 µM (inactive)

Another molecule to check: C=C1CC2CCCC12C=O (centres undefined)
> 10 µM (inactive)

Another molecule to check: N#CCc1nc(Cc2ccccc2)n[nH]1
> 100 µM (inactive)

Another molecule to check: O=C(N/N=C/c1cc(Cl)cc(Cl)c1O)c1ccncc1
> 100 µM (inactive)

Another molecule to check: Cc1ccc2c(c1)CN1c3ccc(C)cc3CN2C1c1ccccc1O
61.9 µM (inactive)

###

# Test system: NCI-H23
# Protocol Details: NCI tumour cell line growth inhibition, 48 h
Activity calls are given as the source filed them. No stated cut-off is given here; in the data, active = GI50 up to about 1.1 µM and inactive = higher.
Reported Endpoint: GI50

Please review the following examples before continuing.
Compound | Target | GI50
CCSC(=O)N1c2ccc(OC)cc2C=CC1C#N (centres undefined) | NCI-H23 | 0.00509 µM (active)
CC(=O)C(=C(I)I)c1ccccc1 | NCI-H23 | 16.8 µM (inactive)
O=C1c2ccccc2S(=O)(=O)c2ccccc21 | NCI-H23 | > 100 µM (inactive)

Using the record for C[N+](C)(N)Cc1csc(-c2ccc(Cl)cc2)n1 , report its GI50.
> 100 µM (inactive)

Another compound to check: O=C(Nc1cccc([N+](=O)[O-])c1)c1nnn(-c2cccc([N+](=O)[O-])c2)c1O
> 100 µM (inactive)

Another compound to check: S=C(N1CCN(c2ccccc2)CC1)N1CCN(c2ccccc2)CC1
> 100 µM (inactive)

###

# Test system: A498
# Protocol Details: NCI tumour cell line growth inhibition, 48 h
Activity calls are given as the source filed them. No stated cut-off is given here; in the data, active = GI50 up to about 1.1 µM and inactive = higher.
# GI50 per entry

Please review the following examples before continuing.
Compound | Endpoint Result
COc1ccc(-c2oc3cc(OC)ccc3c(=O)c2O)cc1 | > 100 µM (inactive)
CCC/C=C/c1cc2c(cc1O)CC[C@@H]1[C@@H]2CC[C@]2(C)[C@@H](O)CC[C@@H]12 | 17.2 µM (inactive)
CCOC(=O)C1(C/C=C\CBr)CCCCCCCCCCC1=O (centres undefined) | 13.9 µM (inactive)

# evaluate next
Using the record for CN(O)C(=O)c1ccc(OCc2cccc(Cl)c2)cc1 , report its GI50.
25.8 µM (inactive)
